# target-of-assay: T1, human MSLN-FL-his protein (human, UniProt Q13421 296-580)
# T1 construct: made in HEK293E cells, purified on nickel column; also called hMSLN-FL-his; human MSLN full-length protein; not shown: His tag
# T1 sequence (Q13421 other isoform, or with tags, fused parts or gaps): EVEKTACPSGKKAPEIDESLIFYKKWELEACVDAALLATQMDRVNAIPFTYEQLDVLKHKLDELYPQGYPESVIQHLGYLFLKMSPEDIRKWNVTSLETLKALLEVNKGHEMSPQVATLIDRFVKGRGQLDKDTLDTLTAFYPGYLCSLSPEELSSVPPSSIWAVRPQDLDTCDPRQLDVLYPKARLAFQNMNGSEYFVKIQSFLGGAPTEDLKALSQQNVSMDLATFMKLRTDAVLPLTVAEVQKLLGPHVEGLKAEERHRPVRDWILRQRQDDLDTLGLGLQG
# test: SPR (Biacore), antibody captured on Protein A chip;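 further: flow cell at 25 °C, antigen injected for 240 s at five concentrations from 200 nM downward, dissociation followed up to 600 s, double-referenced, fitted with Langmuir 1:1 model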
// koff lookup, one value per entry

binder	koff
S009-F7.25.19 (antibody, human IgG1, kappa, V domains shown, human-murine chimeric antibody, human IgG1/kappa constant regions) VH: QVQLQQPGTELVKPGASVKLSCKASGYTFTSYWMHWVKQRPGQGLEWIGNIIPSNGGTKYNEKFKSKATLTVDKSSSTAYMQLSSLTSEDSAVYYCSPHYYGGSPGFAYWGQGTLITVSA VL: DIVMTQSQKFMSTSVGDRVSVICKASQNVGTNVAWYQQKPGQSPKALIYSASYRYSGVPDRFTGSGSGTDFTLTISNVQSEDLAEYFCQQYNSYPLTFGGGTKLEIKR	0.00113 s⁻¹
S009-F7.65.13 (antibody, human IgG1, kappa, V domains shown, human-murine chimeric antibody, human IgG1/kappa constant regions) VH: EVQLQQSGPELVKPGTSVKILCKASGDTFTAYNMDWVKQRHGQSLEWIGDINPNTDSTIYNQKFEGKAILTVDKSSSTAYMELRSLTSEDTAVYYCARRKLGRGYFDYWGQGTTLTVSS VL: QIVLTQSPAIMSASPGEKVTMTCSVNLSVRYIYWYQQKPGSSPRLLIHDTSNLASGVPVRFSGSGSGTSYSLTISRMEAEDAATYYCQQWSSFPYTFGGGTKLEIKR	0.000538 s⁻¹
S009-F7.2.3 (antibody, human IgG1, kappa, V domains shown, human-murine chimeric antibody, human IgG1/kappa constant regions) VH: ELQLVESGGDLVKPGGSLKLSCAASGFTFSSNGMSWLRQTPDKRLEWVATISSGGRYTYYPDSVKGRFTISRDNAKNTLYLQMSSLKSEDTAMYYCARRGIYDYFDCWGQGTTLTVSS VL: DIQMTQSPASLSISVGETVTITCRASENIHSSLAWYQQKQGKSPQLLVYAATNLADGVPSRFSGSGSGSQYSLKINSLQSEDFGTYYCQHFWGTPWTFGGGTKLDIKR	0.00851 s⁻¹
